System: SK-MEL-2
Assay: NCI tumour cell line growth inhibition, 48 h
The source made the active and inactive calls. Rule as the data show it: active = GI50 up to about 1.1 µM and inactive = higher.
Bench note: report the call from active, inactive

Per the records of this test, what outcome belongs to O=C1OCC=C1COC1OC(CO)C(O)C(O)C1O (stereo unspecified) ? inactive

Per the records of this test, what outcome belongs to CC[C@@]1(O)C(=O)OCc2c1cc1n(c2=O)Cc2c-1nc1ccc(O)cc1c2CC[Si](C)(C)C ? active

Per the records of this test, what outcome belongs to CCOC(=O)C(NO)C(Sc1ccccc1)c1ccc(OC)cc1 (stereo unspecified) ? inactive

Per the records of this test, what outcome belongs to O=C1/C(=C/c2cccs2)NC(=S)N1CN1CCOCC1 ? inactive

Per the records of this test, what outcome belongs to Cc1[nH]c2ccccc2c1C1=NO/C(=N\O)C(c2c(C)[nH]c3ccccc23)C1 (stereo unspecified) ? inactive

Per the records of this test, what outcome belongs to CSc1ncc2c(C#N)c3sc4ccccc4n3c(=O)c2n1 ? inactive

====

Hi there, I'd appreciate the recorded GI50 for every entry that follows.
Tested on: MDA-MB-435
Assay: NCI tumour cell line growth inhibition, 48 h
The source made the active and inactive calls. Rule as the data show it: active = GI50 up to about 1.1 µM and inactive = higher.

Endpoint output: GI50 of COc1cc2c(cc1C)NC(=O)/C2=C\c1ccncc1 . Value? 4.14 µM (inactive)

Endpoint output: GI50 of COc1ccc(NC(=S)c2ccc([N+](=O)[O-])o2)cc1 . Value? 2.06 µM (inactive)

Endpoint output: GI50 of CC(C)(C)OC(=O)C(C1NC(C(=O)O)C(C)(C)S1)N1C(=O)c2ccccc2C1=O (centres undefined) . Value? > 100 µM (inactive)

Endpoint output: GI50 of CCCCCCCCCCCCCCCCCCNc1ccn(C2OC(CO)C(OP(=O)(O)OCC(O)COP(=O)(O)OCC3OC(n4cc(F)c(NCCCCCCCCCCCCCCCCCC)nc4=O)CC3O)C2O)c(=O)n1 (centres undefined) . Value? > 50 µM (inactive)

====

Test system: HCT-15
PROPERTY_LABEL: GI50

Endpoint output: GI50 of CCOc1ccccc1NC(=O)C(=O)C(/C(=N/N)C(=O)OC)c1nc2ccc([N+](=O)[O-])cc2nc1O (centres undefined) . Value? > 100 µM

Endpoint output: GI50 of CCOC(=O)c1csc(NC(=O)CCN2CCN(C)CC2)n1 . Value? > 100 µM

Endpoint output: GI50 of COC(=O)/C=C(C)/C=C/c1cc(C(C)=O)c(C)o1 . Value? > 100 µM

Endpoint output: GI50 of COc1ccc(C(=O)C(C(=O)C(=O)Nc2ccc(Cl)c(Cl)c2)c2ccc(OC)cc2)cc1 (centres undefined) . Value? > 100 µM

Endpoint output: GI50 of COc1ccccc1OC(=O)/C=C/c1ccccc1 . Value? > 100 µM

Endpoint output: GI50 of C[N+](C)(C)/C=N\c1cccc2c1CCCC2 . Value? > 100 µM

Endpoint output: GI50 of O=c1cc(N2CCCC2)[nH]c(=O)n1-c1ccc(Cl)cc1 . Value? > 100 µM

Endpoint output: GI50 of O=C(NCc1ccc2ccc3cccnc3c2n1)c1ccc[n+](Cc2ccccc2)c1 . Value? > 100 µM

Endpoint output: GI50 of COC/C=C\[C@]1(O)CCCC[C@@H]1CC(OC)OC . Value? > 100 µM

Endpoint output: GI50 of CN(O)C(=O)/C=C/c1ccc(OCc2cccc(Cl)c2)cc1 . Value? 12.9 µM

Endpoint output: GI50 of O=C(Oc1cncc(Cl)c1)c1cc2ccccc2sc1=O . Value? 38.5 µM

Endpoint output: GI50 of CCOC(CI)O[C@@H]1C=C[C@H](OC(C)=O)C1 (some centres undefined) . Value? > 100 µM

Endpoint output: GI50 of CSc1ccc(/C=C2\N=C(c3ccccc3)N(c3nc4c(Cl)cc(Cl)cc4s3)C2=O)cc1 . Value? 28.5 µM

Endpoint output: GI50 of NN/C(=N\c1ccc(Cl)cc1)NS(=O)(=O)c1ccc(S(=O)(=O)c2ccccc2)s1 . Value? 22 µM

Endpoint output: GI50 of NS(=O)(=O)c1nnc(NSc2ccc([N+](=O)[O-])cc2)s1 . Value? > 100 µM

Endpoint output: GI50 of CNC(=O)c1cccc2c(Nc3ccc(NS(C)(=O)=O)cc3OC)c3cccc(C)c3nc12 . Value? 0.225 µM

Endpoint output: GI50 of Cn1cc(S(=O)(=O)NC(=O)Nc2ccc(Cl)cc2)c(=O)c2ccc(F)cc21 . Value? > 100 µM

Endpoint output: GI50 of O=C1CCCCCCCCCCOC(=O)CCCCCCCCCCO1 . Value? > 100 µM

Endpoint output: GI50 of COc1cc2cc(C(=O)N3C[C@H](CCl)c4c3cc(N)c3ccccc43)[nH]c2c(OC)c1OC . Value? 0.005 µM

Endpoint output: GI50 of CSCC[C@H](NC(=O)[C@H](CC(C)C)NC(=O)[C@@H](Cc1ccccc1)NC(=O)CNC(=O)[C@@H](NC(=O)[C@H](C)NC(=O)[C@H](Cc1c[nH]c2ccccc12)NC(=O)[C@H](CCC(N)=O)NC(=O)[C@H](N)CC(N)=O)C(C)C)C(N)=O . Value? > 12.5 µM

Endpoint output: GI50 of [O-][S+]1c2ccccc2N=C(c2ccc3ccccc3c2)CC1c1ccccc1F (centres undefined) . Value? > 100 µM

Endpoint output: GI50 of Cc1ccc(NC(=O)CCC(=O)C2CC(=O)CCC2=O)cc1C (centres undefined) . Value? > 100 µM

Endpoint output: GI50 of FC(F)(F)c1nc(Br)[nH]c1C(F)(F)F . Value? > 100 µM

Endpoint output: GI50 of O=C(c1ccccc1)c1cc(Cl)ccc1NCn1nnc2ccccc21 . Value? 42.8 µM
